- Target or system: Glutaminyl-peptide cyclotransferase (Homo sapiens)
- Sequence (Q16769 whole entry): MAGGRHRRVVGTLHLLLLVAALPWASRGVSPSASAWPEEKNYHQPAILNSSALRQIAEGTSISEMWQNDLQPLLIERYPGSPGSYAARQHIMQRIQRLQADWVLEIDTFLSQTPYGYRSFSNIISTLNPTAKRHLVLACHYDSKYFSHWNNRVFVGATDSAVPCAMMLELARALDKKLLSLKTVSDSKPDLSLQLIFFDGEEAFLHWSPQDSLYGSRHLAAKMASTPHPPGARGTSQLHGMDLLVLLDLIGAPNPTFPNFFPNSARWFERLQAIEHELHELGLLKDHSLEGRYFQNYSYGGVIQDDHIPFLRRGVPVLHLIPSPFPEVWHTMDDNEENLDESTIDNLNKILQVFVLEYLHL
pKi: −log10 of the molar value.

[
  {
    "Chemical string": "O=C1CNC(=S)N1CCCn1ccnc1",
    "pKi": 6.15
  }
]
